Provenance of the data: patent US20210292347A1

Tested on: human lung cancer cell line NCI-H460
Assay: cells
Type: cell-based
Conditions: Homo sapiens, NCI-H460; MTT, 48 hours, unit inferred; read-out: IC50 and 95% confidence limits, NCI-H460 cells
Exercise: for every item that follows, state its recorded IC50.
Value expressed in µM; do not type the unit.

Exercise: Notebook entry, human lung cancer cell line NCI-H460 assay: IC50 of CCCc1nn(C)c2c(=O)n(C3OC(COP(=O)(O)OP(=O)(O)OP(=O)(O)O)C(O)C3O)nnc12 (centres unmarked) [Example 135] = ?
Solution: 14

Exercise: Now the same for CCCc1nn(C(C(=O)O)P(=O)(OCC)OCC)c2c(=O)n(C3CCC(CO)O3)nnc12 (centres unmarked) [Example 82]
Solution: 60.5

Exercise: Proceed to Nc1nn(O)c2c(=O)n(C3OC(CO)C(O)C3O)nnc12 (centres unmarked) [Example 15]
Solution: 22

Exercise: Follow-up entry: CCOC(=O)c1nn(CO)c2c(=O)n(C3OC3CO)nnc12 (centres unmarked) [Example 7]
Solution: 5.18

Exercise: For Nc1nn(O)c2c(=O)n(C3CSC(CO)O3)nnc12 (centres unmarked) [Example 89] then?
Solution: 8.52

---

Field: pIC50. Provide a value for each of the compounds that follow.
Tested on: human breast cancer cell line MCF7
Assay: cells
Type: cell-based
Settings: MCF7, MTT, cultured for 48 hours, value (95% confidence limit), Table 2, read-out: IC50 Breast cancer MCF7
Procedure: Cell lines: Human pancreatic cancer cell line Panc-1, human colorectal cancer cell line HT29, human lung cancer cell line NCI-H460 and human breast cancer cell line MCF7; the medium: s DMEM (Gibco BRL), containing 10% fetal calf serum (Gibco BRL) and 2 mM L-glutamine (Gibco BRL). Test samples: example compounds 7, 15, 82, 89, 116 and 135. The samples were dissolved in dimethyl sulfoxide (DMSO, Sigma, United States) and medium was added to the final concentration of 0.5%. […]
Please express pIC50 as -log10 of the molar concentration.

Exercise: Lookup: pIC50 / human breast cancer cell line MCF7 / CCCc1nn(C)c2c(=O)n(C3OC(COP(=O)(O)OP(=O)(O)OP(=O)(O)O)C(O)C3O)nnc12 (centres unmarked) [Example 135]
Solution: 5.24

Exercise: Further, for Nc1nn(O)c2c(=O)n(C3CSC(CO)O3)nnc12 (centres unmarked) [Example 89] ?
Solution: 4.17

Exercise: Same read-out for CCOC(=O)c1nn(CO)c2c(=O)n(C3OC3CO)nnc12 (centres unmarked) [Example 7] ?
Solution: 5.21

Exercise: Let us now turn to Nc1nn(O)c2c(=O)n(C3OC(CO)C(O)C3O)nnc12 (centres unmarked) [Example 15]
Solution: 5.56

Exercise: CCCc1nn(C(C(=O)O)P(=O)(OCC)OCC)c2c(=O)n(C3CCC(CO)O3)nnc12 (centres unmarked) [Example 82] , same question.
Solution: 4.46

---

System: Human pancreatic cancer cell line Panc-1
Assay: cells
Format: cell-based
Details: Homo sapiens, PANC-1; MTT, 48 hours; read-out: IC50 and 95% confidence limit, anti-proliferative effect on Panc-1
Provide the reported IC50 of each item.

Exercise: State its IC50 on Human pancreatic cancer cell line Panc-1: Nc1nn(O)c2c(=O)n(C3OC(CO)C(O)C3O)nnc12 (centres unmarked) [Example 15]
Solution: 2.68 µg/mL

Exercise: Also CCCc1nn(C(C(=O)O)P(=O)(OCC)OCC)c2c(=O)n(C3CCC(CO)O3)nnc12 (centres unmarked) [Example 82] , if possible.
Solution: 53 µg/mL

Exercise: Can you check Nc1nn(O)c2c(=O)n(C3CSC(CO)O3)nnc12 (centres unmarked) [Example 89] next?
Solution: 10 µg/mL

Exercise: Now consider CCCc1nn(C)c2c(=O)n(C3OC(COP(=O)(O)OP(=O)(O)OP(=O)(O)O)C(O)C3O)nnc12 (centres unmarked) [Example 135] .
Solution: 53.5 µg/mL

Exercise: Try this compound too: CCOC(=O)c1nn(CO)c2c(=O)n(C3OC3CO)nnc12 (centres unmarked) [Example 7]
Solution: 51.3 µg/mL
